Test system: MDR1 (human)
measurement_protocol: Apparent permeability across apical to basolateral side in MDCK cells expressing human MDR1
Assay type: ADME, cell-based, Canis lupus familiaris
experimental_context: dog
metric_name: Papp A→B (×10⁻⁶ cm/s)
Give bare numbers, in ×10⁻⁶ cm/s.

Exam item: Using the record for CCc1nc(Cl)c2n1CCN([C@@H](C(=O)NC)c1ccccc1)[C@H]2CCc1ccc(C(F)(F)F)c(F)c1 , report its Papp A→B.
Marked response: 1.98

---

tested_target: Orexin receptor type 2 (Homo sapiens)
Sequence (O43614 whole entry): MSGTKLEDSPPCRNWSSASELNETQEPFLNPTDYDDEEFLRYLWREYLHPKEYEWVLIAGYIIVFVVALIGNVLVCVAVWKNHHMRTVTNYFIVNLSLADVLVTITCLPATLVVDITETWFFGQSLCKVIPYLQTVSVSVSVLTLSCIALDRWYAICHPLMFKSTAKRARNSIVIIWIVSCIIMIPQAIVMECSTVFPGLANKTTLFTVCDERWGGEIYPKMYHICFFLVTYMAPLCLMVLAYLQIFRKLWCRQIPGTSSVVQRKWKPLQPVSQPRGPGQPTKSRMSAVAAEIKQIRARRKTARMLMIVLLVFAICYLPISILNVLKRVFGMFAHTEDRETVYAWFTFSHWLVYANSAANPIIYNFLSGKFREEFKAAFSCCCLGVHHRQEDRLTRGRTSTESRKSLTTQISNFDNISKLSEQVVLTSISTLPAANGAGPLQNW
measurement_protocol: Antagonist activity at human OX2R expressed in CHO cells assessed as inhibition of calcium mobilization by FLIPR assay
metric_name: pIC50
Answers are plain numbers, as −log10 of the molar value.

- CCc1nc(Cl)c2n1CCN([C@@H](C(=O)NC)c1ccccc1)[C@H]2CCc1cccc(C(F)(F)F)c1: 8.00
- CCc1nc(Cl)c2n1CCN([C@@H](C(=O)NC)c1ccccc1)[C@H]2CCc1ccc(C(F)(F)F)c(F)c1F: 7.85
- CCc1nc(Cl)c2n1CCN([C@@H](C(=O)NC)c1ccccc1)[C@H]2CCc1ccc(F)c(C(F)(F)F)c1: 7.80

List the reported pIC50 of each molecule below.
1. CCc1nc(Cl)c2n1CCN([C@@H](C(=O)NC)c1ccccc1)[C@H]2CCc1ccc(C(F)(F)F)c(F)c1
2. CNC(=O)[C@@H](c1ccccc1)N1CCn2c(C3CC3)nc(Cl)c2[C@@H]1CCc1ccc(C(F)(F)F)c(F)c1

Marked response:
1. 8.15
2. 8.00

Hello, the source for this data is ChEMBL document CHEMBL2396638, in case you need it.
